# TEST TARGET: TAZ1 domain of CBP (residues 346-440) (UniProt Q92793 346-440)
# Sequence (Q92793 346-440): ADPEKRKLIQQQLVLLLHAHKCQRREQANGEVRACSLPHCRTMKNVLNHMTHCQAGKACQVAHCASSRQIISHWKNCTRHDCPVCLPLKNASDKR
# EXPERIMENT SUMMARY: ITC
pKd: −log10 of the molar value.

- BINDER: "VDGLPDLGHAQDLMDGLPPGDSNQLAWFDTDL (peptide, UniProt P35222 750-781, looked up) [βCAT_(750-781), β-catenin residues 750-781]"
  pKd: 5.66
- BINDER: "βCAT_(TAD2), β-catenin residues 730-781 (domain or fragment, human, UniProt P35222 730-781, looked up) GMDPMMEHEMGGHHPGADYPVDGLPDLGHAQDLMDGLPPGDSNQLAWFDTDL"
  pKd: 6.42
